# measured target: GLP-1 receptor (UniProt P43220 24-463, limits assumed)
# method summary: cell-based or functional assay
Non-standard residues stand in square brackets, D forms with d. Primed or numbered codes have the meaning given here. No end group written: not given here. *: point of attachment. PEG 40 kDa = 40 kDa polyethylene glycol attached to Cys; PEG 40 kDa″ = 40 kDa polyethylene glycol; Stearoyl = CCCCCCCCCCCCCCCCCC(=O)*; Palmitoyl = CCCCCCCCCCCCCCCC(=O)*; Myristoyl = CCCCCCCCCCCCCC(=O)*; Octanoyl = CCCCCCCC(=O)*; Aib = CC(C)(N)C(=O)O
assay endpoint: pEC50
One number for each entry, as −log10 of the molar value.

Known pEC50 results, listed for orientation:
What value of pEC50 has been recorded for this entry: H[Aib]QGTFTSDK(Myristoyl)SKYLDEQAAKEFIC(PEG 40 kDa)WLMNT-NH2 [C14 acylated Glucagon analog peptide (SEQ ID NO: 535)]
10.77

Same thing, different binder: H[Aib]QGTFTSDK(Palmitoyl)SKYLDEQAAKEFIC(PEG 40 kDa)WLMNT-NH2 [C16 acylated Glucagon analog peptide (SEQ ID NO: 536)]
10.90

Could you do the same for H[Aib]QGTFTSDK(Octanoyl)SKYLDEQAAKEFIC(PEG 40 kDa)WLMNT-NH2 [C8 acylated Glucagon analog peptide (SEQ ID NO: 534)] , please?
10.76

Okay, now this binder:
Any idea what its pEC50 is? The binder is H[Aib]QGTFTSDK(Stearoyl)SKYLDEQAAKEFIC(PEG 40 kDa″)WLMNT-NH2 [C18 acylated Glucagon analog peptide (SEQ ID NO: 537)]
10.93

src = patent US20120172295A1
